assay: in vitro spectrophotometric determination of solar protection parameters of standard formulations (Diffey and Robson); settings: standard formulation containing the compound at 3%
MEASURED ENDPOINT: SPF

INSERT INTO measurements (compound, val) VALUES
  ('O=S(=O)(O)c1ccc2[nH]c(-c3ccccc3)nc2c1 [reference compound]', 6.33),
  ('O=C(O)c1ccc2[nH]c(-c3ccc(O)cc3)nc2c1', 8.42),
  ('O=S(=O)([O-])c1cc(S(=O)(=O)O)cc2[nH]c(-c3ccc(-c4nc5c(S(=O)(=O)[O-])cc(S(=O)(=O)O)cc5[nH]4)cc3)nc12.[Na+].[Na+] [Neo Heliopan ® AP, reference compound]', 4.59),
  ('Oc1ccc(-c2nc3ccccc3[nH]2)c(O)c1', 4.85),
  ('O=S(=O)(O)c1ccc2[nH]c(-c3ccc(O)c(O)c3)nc2c1', 13.36),
  ('O=C(O)c1ccc2[nH]c(-c3ccc(O)c(O)c3)nc2c1', 9.82),
  ('O=C(O)c1ccc2[nH]c(-c3ccc(O)cc3O)nc2c1', 4.70),
  ('Oc1ccc(-c2nc3ccccc3[nH]2)cc1O', 7.07);
